Here the recorded pEC50 is given for each entry.
system: Human coronavirus OC43; assay: Antiviral activity against HCoV-OC43 infected in human NCI-H460 cells treated for 72 hrs by CPE inhibition assay; format: functional, organism-based; conditions: Betacoronavirus 1, NCI-H460, 72 h
Conceptually, pEC50 converts a concentration in mol/L into minus its log10.

Field: example entries. Status: answers known.
Smiles Structure: CCOc1ccc2nc(NCCOC)nc(Nc3cc(C(F)(F)F)cc(C(F)(F)F)c3)c2c1
Reported Value: 7.00
--
Smiles Structure: FC(F)(F)c1cc(Nc2ncnc3ncccc23)cc(C(F)(F)F)c1
Reported Value: 5.29
--
Smiles Structure: COc1ccc2ncnc(Nc3cc([N+](=O)[O-])cc(C(F)(F)F)c3)c2c1
Reported Value: 6.16
--
Smiles Structure: COc1cc(/C=C/c2ccc(F)cc2)c(C(=O)O)c(O)c1CC=C(C)C
Reported Value: 4.89
--
Smiles Structure: FC(F)(F)c1cc(Nc2ncnc3cc(Cl)ccc23)cc(C(F)(F)F)c1
Reported Value: 6.33

For the record FC(F)(F)c1cc(Nc2ncnc3ccc(I)cc23)cc(C(F)(F)F)c1 , what value of pEC50 is listed for Human coronavirus OC43?
6.32

For the record NC(=O)c1ncn([C@@H]2O[C@H](CO)[C@@H](O)[C@H]2O)n1 , what value of pEC50 is listed for Human coronavirus OC43?
4.10

For the record Clc1ccc2ncnc(NCCN3CCOCC3)c2c1 , what value of pEC50 is listed for Human coronavirus OC43?
3.81

====

assay: Selectivity index, ratio of TC50 for human NCI-H460 cells infected with HCoV-OC43 to EC50 for HCoV-OC43 infected in human NCI-H460 cells; assay type: toxicity, cell-based; settings: read-out: Selectivity Index
Readout Type: selectivity ratio
When you answer, write just the number.

Field: example entries. Status: answers known.
Compound: CCOc1ccc2nc(NCCOC)nc(Nc3cc(C(F)(F)F)cc(C(F)(F)F)c3)c2c1
selectivity ratio: 57.7

Compound: COc1ccc2ncnc(Nc3cccc(C(F)(F)F)c3)c2c1
selectivity ratio: 2.5

Now let's try a different one.
Would you mind telling me what selectivity ratio value was observed for CCOc1ccc2nc(NC(Cc3ccccc3)C(=O)OC(C)(C)C)nc(Nc3cc(C(F)(F)F)cc(C(F)(F)F)c3)c2c1 (stereo not given) ?
2.1

====

system: Human coronavirus OC43; assay: Antiviral activity against HCoV-OC43 infected in human NCI-H460 cells treated for 72 hrs by CPE inhibition assay; assay type: functional, organism-based; conditions: Betacoronavirus 1, NCI-H460, 72 h
pEC50: −log10 of the molar value.
Readout Type: pEC50

Smiles Structure: CN(C)c1ccc(Nc2ncnc3ccc(Cl)cc23)cc1Cl
Reported Value: < 5.61

Would you mind telling me what pEC50 value was observed for CCOC(=O)c1ccc(Nc2ncnc3ccc(Cl)cc23)c(Cl)c1 ?
< 5.13

Would you mind telling me what pEC50 value was observed for Fc1ccc(Nc2ncnc3ccc(Cl)cc23)cc1 ?
< 5.13

Would you mind telling me what pEC50 value was observed for Cc1ccc(Nc2ncnc3ccc(Cl)cc23)c(Cl)c1 ?
< 5.13

Would you mind telling me what pEC50 value was observed for CC/C=C/c1cc(OC)c(CC=C(C)C)c(O)c1C(=O)O ?
< 4.65

Would you mind telling me what pEC50 value was observed for Clc1ccc(Nc2ncnc3ccc(Cl)cc23)c(Cl)c1 ?
< 5.13

Would you mind telling me what pEC50 value was observed for N#Cc1ccc(Nc2ncnc3ccc(Cl)cc23)c(Cl)c1 ?
< 4.65

====

Here the recorded EC50 is given for each entry.
tested on: Human coronavirus OC43; test: Antiviral activity against HCoV-OC43 infected in human NCI-H460 cells treated for 72 hrs by CPE inhibition assay; type: functional, organism-based; details: Betacoronavirus 1, NCI-H460, 72 h

Field: example entries. Status: answers known.
Smiles Structure: Clc1ccc(Nc2ncnc3ccc(Cl)cc23)cc1
EC50: > 7.41 µM

Smiles Structure: CCOC(=O)c1ccc(Nc2ncnc3ccc(Cl)cc23)cc1
EC50: > 7.41 µM

Smiles Structure: O=[N+]([O-])c1ccc(Nc2ncnc3ccc(Cl)cc23)cc1
EC50: > 7.41 µM

Smiles Structure: COc1ccc2ncnc(Nc3cc(Cl)cc(C#N)c3)c2c1
EC50: 9.98 µM

Now let's try a different one.
Would you mind telling me what EC50 value was observed for COc1ccc2ncnc(Nc3cc(C(F)(F)F)ccc3F)c2c1 ?
> 6.17 µM

====

tested on: Human coronavirus OC43; assay: Antiviral activity against HCoV-OC43 infected in human NCI-H460 cells treated for 72 hrs by CPE inhibition assay; assay type: functional, organism-based; conditions: Betacoronavirus 1, NCI-H460, 72 h
Readout Type: EC50

Field: example entries. Status: answers known.
Smiles Structure: O=[N+]([O-])c1cnc(Nc2ncnc3ccc(Cl)cc23)nc1
Reported Value: > 66.7 µM
--
Smiles Structure: Clc1ccc2ncnc(Nc3ccccc3Cl)c2c1
Reported Value: > 22.2 µM

Would you mind telling me what EC50 value was observed for CN(C)c1ccc(Nc2ncnc3ccc(Cl)cc23)c(Cl)c1 ?
> 2.47 µM

====

assay: Cytotoxicity in human NCI-H460 cells infected with HCoV-OC43 treated for 72 hrs by CPE inhibition assay; format: toxicity, cell-based; conditions: read-out: TC50
Here the recorded CC50 at 72 h is given for each entry.
# value in µM; strip the unit string

Molecule: CCCNc1nc(Nc2cc(C(F)(F)F)cc(C(F)(F)F)c2)c2cc(OCC)ccc2n1
Readout Units: µM
CC50 at 72 h: 6.17

Would you mind telling me what CC50 at 72 h value was observed for CCOc1ccc2nc(NC(C)CCCN(CC)CC)nc(Nc3cc(C(F)(F)F)cc(C(F)(F)F)c3)c2c1 (centres undefined) ?
3.56

Would you mind telling me what CC50 at 72 h value was observed for COc1ccc2ncnc(Nc3ccc(F)c(C(F)(F)F)c3)c2c1 ?
26.7

Would you mind telling me what CC50 at 72 h value was observed for CC(C)Oc1ccc2ncnc(Nc3cc(C(F)(F)F)cc(C(F)(F)F)c3)c2c1 ?
388

Would you mind telling me what CC50 at 72 h value was observed for Fc1cc(Nc2ncnc3ccc(Cl)cc23)cc(C(F)(F)F)c1 ?
5.14

====

system: Human coronavirus OC43; experiment: Antiviral activity against HCoV-OC43 infected in human NCI-H460 cells treated for 72 hrs by CPE inhibition assay; assay type: functional, organism-based; conditions: Betacoronavirus 1, NCI-H460, 72 h
Readout Type: EC50 (µM)
# value in µM; strip the unit string

Molecule: CCOc1ccc2nc(NCCN3CCOCC3)nc(Nc3cc(C(F)(F)F)cc(C(F)(F)F)c3)c2c1
Readout Units: µM
EC50: 0.12

Would you mind telling me what EC50 value was observed for FC(F)(F)c1cc(Nc2ncnc3cccnc23)cc(C(F)(F)F)c1 ?
32.1

====

test system: Human coronavirus OC43; assay: Antiviral activity against HCoV-OC43 infected in human NCI-H460 cells treated for 72 hrs by CPE inhibition assay; type: functional, organism-based; details: Betacoronavirus 1, NCI-H460, 72 h
Readout Type: EC50

Field: example entries. Status: answers known.
Smiles Structure: COc1ccc2ncnc(Oc3cc(C(F)(F)F)cc(C(F)(F)F)c3)c2c1
Measurement Target: Human coronavirus OC43
EC50: > 55.6 µM

Smiles Structure: COc1ccc(Nc2ncnc3ccc(Cl)cc23)cc1
Measurement Target: Human coronavirus OC43
EC50: > 7.41 µM

Smiles Structure: CCOc1ccc2nc(NC3CCCC3)nc(Nc3cc(C(F)(F)F)cc(C(F)(F)F)c3)c2c1
Measurement Target: Human coronavirus OC43
EC50: > 6.17 µM

Now let's try a different one.
Would you mind telling me what EC50 value was observed for Clc1ccc2ncnc(Nc3ccc(Br)cc3)c2c1 ?
> 2.47 µM

====

assay: Cytotoxicity in human NCI-H460 cells infected with HCoV-OC43 treated for 72 hrs by CPE inhibition assay; format: toxicity, cell-based; conditions: read-out: TC50
Here the recorded CC50 at 72 h is given for each entry.
# value in µM; strip the unit string

Field: example entries. Status: answers known.
Compound: COc1ccc2ncnc(Nc3cc(C(F)(F)F)ccc3F)c2c1
Reported Value: 15.4
//
Compound: O=C(O)c1ccc(Nc2ncnc3ccc(Cl)cc23)c(Cl)c1
Reported Value: 96.2
//
Compound: FC(F)(F)c1cc(Nc2ncnc3ccccc23)cc(C(F)(F)F)c1
Reported Value: 17.2
//
Compound: FC(F)(F)c1cc(Nc2ncnc3ncccc23)cc(C(F)(F)F)c1
Reported Value: 32.1
//
Compound: COC(=O)c1cc(Nc2ncnc3ccc(OC)cc23)cc(C(F)(F)F)c1
Reported Value: 26.7

Would you mind telling me what CC50 at 72 h value was observed for CCOc1ccc2nc(NCC3CCCO3)nc(Nc3cc(C(F)(F)F)cc(C(F)(F)F)c3)c2c1 (centres undefined) ?
96.2

Would you mind telling me what CC50 at 72 h value was observed for Fc1ccc2ncnc(Nc3cc(C(F)(F)F)cc(C(F)(F)F)c3)c2c1 ?
12.8

Would you mind telling me what CC50 at 72 h value was observed for CCOc1ccc2nc(N3CCN(C)CC3)nc(Nc3cc(C(F)(F)F)cc(C(F)(F)F)c3)c2c1 ?
10.7

src = ChEMBL document CHEMBL5634129
